- System: Vero E6
- Procedure Text: drug sensitivity score (DSS) for viability; higher = more toxic; extreme values may be limits of the assay
- Details: 72 h
Property Label: drug sensitivity score

{"columns": ["Molecule", "Result Value"],
 "data": [
  ["NCCS(=O)(=O)O", 0],
  ["O=C1CCC[C@@H]2[C@H]3CCC[N+]4([O-])CCC[C@@H](CN12)[C@@H]34 (stereo not given in full)", 0],
  ["NCCNc1ccc(NCCN)c2c1C(=O)c1ccncc1C2=O", 0],
  ["O=C(c1ccc(F)cc1)N1CCC[C@H](c2nc(-c3ccc(F)cc3)no2)C1", 0],
  ["Cc1ccc(-c2nn(C(C)(C)C)c3ncnc(N)c23)cc1", 2.3]
]}

----------
- Test system: HepG2
- Procedure Text: drug sensitivity score (DSS) for viability; higher = more toxic; extreme values may be limits of the assay
- Details: 72 h

{"columns": ["Compound", "Target Entity", "drug sensitivity score"],
 "data": [
  ["CC/C=C\\C/C=C\\C/C=C\\C/C=C\\C/C=C\\C/C=C\\CCC(=O)OCC", "HepG2", 0],
  ["CC(C)=CCc1c(O)cc(O)c2c(=O)c(O)c(-c3ccc(C(F)(F)F)cc3)oc12", "HepG2", 3],
  ["COc1cc(OC)cc(N(CCNC(C)C)c2ccc3ncc(-c4cnn(C)c4)nc3c2)c1", "HepG2", 3.4],
  ["CCC/N=C1\\S/C(=C\\c2ccc(OC[C@H](O)CO)c(Cl)c2)C(=O)N1c1ccccc1C", "HepG2", 0],
  ["CN1CCN(C(=O)C2C(C(=O)O)[C@H]3CC[C@@H]2O3)CC1 (some centres not stated)", "HepG2", 0],
  ["Cc1cccc(C)c1NC(=O)CN1CCCC1=O", "HepG2", 0],
  ["O=C(Nc1ccccc1C(=O)Nc1ccc(CCO)cc1)c1ccc([N+](=O)[O-])cc1", "HepG2", 0.1],
  ["COC(=O)[C@]12CCC(C)(C)C[C@H]1[C@H]1C(=O)C=C3[C@@]4(C)C=C(C#N)C(=O)C(C)(C)[C@@H]4CC[C@@]3(C)[C@]1(C)CC2", "HepG2", 19.4],
  ["O=C(C1CC1)N1CC[C@@H](Cc2n[nH]c(=O)n2-c2ccc(-c3ccc4occc4c3)cc2)C1", "HepG2", 3.6],
  ["N#Cc1ccc2[nH]cc(CCCCN3CCN(c4ccc5oc(C(N)=O)cc5c4)CC3)c2c1", "HepG2", 2.2],
  ["CCOC(=O)c1cncn1[C@H](C)c1ccccc1 [etomidate]", "HepG2", 0],
  ["C[C@H]1[C@H](OC(=O)CCC(=O)O)O[C@@H]2O[C@@]3(C)CC[C@H]4[C@H](C)CC[C@@H]1[C@@]24OO3 [artesunate]", "HepG2", 2.8],
  ["Cc1cc(CN)cc(C)c1NC(=O)c1ccc(-c2cc(Cl)ccc2Cl)o1", "HepG2", 1.2],
  ["NCCc1c[nH]cn1", "HepG2", 0],
  ["O=S(=O)(O)c1ccc2[nH]c(-c3ccccc3)nc2c1", "HepG2", 0],
  ["O=C1c2cccc(O)c2C(=O)c2c(O)cc(CO)cc21", "HepG2", 0],
  ["C[C@H](Nc1cc2c(-c3ccc4c(c3)OCO4)noc2cn1)c1ccccc1", "HepG2", 0]
]}

----------
Here, each record is paired with measured cell viability data.
- System: Calu-3
- Procedure Text: cell viability relative to DMSO; higher = less toxic
- Details: 72 h; 10000 nM

{"columns": ["Compound", "Value Units", "cell viability"],
 "data": [
  ["N#Cc1c(N(CC(=O)O)CC(=O)O)sc(C(=O)O)c1CC(=O)O [Strontium Ranelate]", "%", 104],
  ["Cc1cc(CN)cc(C)c1NC(=O)c1ccc(-c2cc(Cl)ccc2Cl)o1", "%", 60.1],
  ["O=C(O)COc1cccc(CN(Cc2ccc(-n3cccn3)cc2)S(=O)(=O)c2cccnc2)c1 [taprenepag]", "%", 91.7],
  ["CCOc1c2c(c(OCC)c3ccccc13)C(=O)N(c1ccc(CC(=O)NS(=O)(=O)c3ccccc3)cc1)C2", "%", 98.2],
  ["N#Cc1ccc2[nH]cc(CCCCN3CCN(c4ccc5oc(C(N)=O)cc5c4)CC3)c2c1 [vilazodone]", "%", 86.6],
  ["O=C(Nc1ccccc1-c1cn2c(CN3CCNCC3)csc2n1)c1cnc2ccccc2n1 [SRT1720]", "%", 0.9],
  ["CCC(C)n1ncn(-c2ccc(N3CCN(c4ccc(OCC5COC(Cn6cncn6)(c6ccc(Cl)cc6Cl)O5)cc4)CC3)cc2)c1=O (stereo unspecified) [itraconazole]", "%", 98.6],
  ["C[C@]12CCC(=O)C=C1C=C[C@@H]1[C@@H]2CC[C@@]2(C)[C@H]1CC[C@@]21CCC(=O)O1 [canrenone]", "%", 95],
  ["Cc1c(Cl)c(C)[n+]([O-])c(Cl)c1-c1noc(-c2cc(O)c(O)c([N+](=O)[O-])c2)n1 [opicapone]", "%", 105],
  ["CCCCOCCOc1nc(-c2ccc(C(=O)O)c(F)c2)sc1C", "%", 84.8],
  ["CCCCN1CCCC1CNC(=O)c1cc(C#N)c2ccccc2c1OC (stereo unspecified) [nafadotride]", "%", 97.1],
  ["C[C@]12CCC(=O)C=C1CC[C@@H]1[C@@H]2[C@@H](O)C[C@@]2(C)[C@H]1CC[C@]2(O)C(=O)COP(=O)(O)O [hydrocortisone-phosphate]", "%", 93.8],
  ["COC(=O)[C@]12CCC(C)(C)C[C@H]1[C@H]1C(=O)C=C3[C@@]4(C)C=C(C#N)C(=O)C(C)(C)[C@@H]4CC[C@@]3(C)[C@]1(C)CC2 [Bardoxolone Methyl]", "%", 0],
  ["NC(=O)CN1CC[C@@H](NC(=O)[C@@H]2CCCN2)C1=O [PAOPA]", "%", 106],
  ["CCCCCCCCC(=O)NCc1cc(OC)c(O)cc1I [6-iodo-nordihydrocapsaicin]", "%", 104],
  ["CN1CCN(c2cccc(Nc3nc4c(-c5ccc(S(C)(=O)=O)cc5)cccn4n3)c2)CC1", "%", 136]
]}

----------
Here, each record is paired with measured cell viability data.
- System: Calu-3
- Procedure Text: cell viability relative to DMSO; higher = less toxic
- Details: 72 h; 1 nM

{"columns": ["Compound", "Value Units", "cell viability"],
 "data": [
  ["O=C(O)CCc1ccc(NCc2cccc3c2CCCN3CCOc2ccccc2)cc1F", "%", 93.2],
  ["CCOc1cccc(NC(=O)c2ccc(N3CCCC3)c(C(F)(F)F)c2)c1 [EPPTB]", "%", 98.9],
  ["NC(=O)CC[C@H](NC(=O)Cc1ccccc1)C(=O)O [phenylacetylglutamine]", "%", 90.6],
  ["CCCN1CCCC(c2cccc(O)c2)C1 (stereo in doubt) [preclamol]", "%", 110],
  ["CC(=O)N[C@@H](CSC/C=C(\\C)CC/C=C(\\C)CCC=C(C)C)C(=O)O [acetyl-farnesyl-cysteine]", "%", 108],
  ["C[C@@H]1C[C@H]2[C@@H]3CCC4=CC(=O)C=C[C@]4(C)[C@@]3(F)[C@@H](O)C[C@]2(C)[C@H]1C(=O)CO [desoximetasone]", "%", 86.2],
  ["CC(=O)OCC(CCn1cnc2cnc(N)nc21)COC(C)=O [famciclovir]", "%", 104],
  ["C[N+]1([O-])[C@@H]2C[C@@H](OC(=O)[C@H](CO)c3ccccc3)C[C@H]1[C@@H]1O[C@@H]12 (stereo partly drawn) [scopolamine-N-oxide]", "%", 99.7]
]}

----------
Here, each record is paired with measured cell viability data.
- Test system: Caco-2
- Procedure Text: cell viability relative to DMSO; higher = less toxic
- Details: 72 h; 1 nM

{"columns": ["Compound", "cell viability"],
 "data": [
  ["O=C1CCC[C@@H]2[C@H]3CCC[N+]4([O-])CCC[C@@H](CN12)[C@@H]34 (some centres undefined)", "97.1%"],
  ["C[C@H](CCC(=O)O)[C@H]1CC[C@H]2[C@@H]3[C@@H](O)C[C@@H]4C[C@H](O)CC[C@]4(C)[C@H]3CC[C@]12C", "106%"],
  ["CCOC(=O)[C@H](C)C[C@@H](Cc1ccc(-c2ccccc2)cc1)NC(=O)CCC(=O)O", "94.4%"],
  ["NC(=O)OCCCc1ccccc1 [phenprobamate]", "104%"],
  ["CCOc1c(N2CCOCC2)cnn(C)c1=O", "99.1%"],
  ["CC[N+](C)(CC)CCOC(=O)C1c2ccccc2Oc2ccccc21", "91.6%"],
  ["CS(=O)(=O)CCNCc1nc(-c2ccc3ncnc(Nc4ccc(OCc5cccc(F)c5)c(Cl)c4)c3c2)cs1", "97.1%"],
  ["CCCN1CCCC(c2cccc(O)c2)C1 (stereo in doubt)", "107%"],
  ["CC(C)=CCc1c(O)cc(O)c2c(=O)c(O)c(-c3ccc(C(F)(F)F)cc3)oc12", "92.1%"],
  ["Cn1ccc2cc3c(cc21)CCN3C(=O)Nc1cccnc1", "88.8%"],
  ["C/C=C(/C(=C/C)c1ccc(O)cc1)c1ccc(O)cc1", "112%"],
  ["CCCC(C)NC(=O)c1ccc(Cl)c(Cl)c1 (centres undefined)", "120%"],
  ["CCCN(CCC)C(=O)Cc1c(-c2ccc(Cl)cc2)nc2ccc(Cl)cn12", "91.5%"],
  ["Cc1ccc(NC(=O)c2ccc(CN3CC[C@H](N(C)C)C3)c(C(F)(F)F)c2)cc1Nc1nccc(-c2cncnc2)n1", "97.1%"],
  ["CN(C)CCCN1c2ccccc2Sc2ccccc21", "95.5%"],
  ["C[C@H](O)[C@H](O)[C@H]1CNc2nc(N)[nH]c(=O)c2N1", "109%"],
  ["Cc1ccc(-c2nn(C(C)(C)C)c3ncnc(N)c23)cc1", "102%"],
  ["O=C(Nc1ccccc1-c1cn2c(CN3CCNCC3)csc2n1)c1cnc2ccccc2n1", "88.6%"],
  ["CCc1cncnc1N1CCN(Cc2nc3cc(C(F)(F)F)ccc3[nH]2)CC1", "93.2%"]
]}
